System: IGROV1 ovarian
assay comment: NCI tumour cell line growth inhibition, 48 h; in the data active means GI50 below about 0.43 µM; inactive means the rest
Entry note: the call must match one of active, inactive

Record excerpt, results attached:
molecule=Cc1ccc(/C=C2\CN(C(=O)C(Cl)Cl)C/C(=C\c3ccc(C)cc3)C2=O)cc1 assigned_label=active
molecule=O=C(CN1CCN(c2cc3c(cc2F)c(=O)c(C(=O)O)cn3C2CC2)CC1)Nc1nc(-c2ccc(Cl)cc2)cs1 assigned_label=inactive
molecule=CC(=O)c1c(CN(C)c2ccccc2)n([O-])c2ccccc2[n+]1=O assigned_label=inactive
molecule=Brc1ccc2[nH]cc(-c3nc(-c4c[nH]c5ncccc45)cs3)c2c1 assigned_label=inactive
molecule="CCN1C(=O)CCCc2c1ccc(Nc1ncc(Cl)c(NC3[C@@H](C(N)=O)[C@@H]4C=C[C@H]3C4)n1)c2OC (stereo not given in full)" assigned_label=inactive

[Q] Outcome logged for CCN(Cc1ccc(F)cc1)c1ccc(CO)c(C)c1 in this assay:
[A] inactive

----------
System: TK-10 renal
assay comment: NCI tumour cell line growth inhibition, 48 h
quantity kind: TGI

Solved cases (2 shown):
compound="COc1ccc(C(c2ccc(OCCN(C)C)cc2)c2cc3ccccc3c3ccccc23)cc1 (stereo unspecified)" experimental_value="3.1 µM"
compound="NC1=NC(c2ccc(Cl)cc2)N(c2ccc(S(N)(=O)=O)cc2)C(N)=N1 (stereo unspecified)" experimental_value="> 100 µM"

[Q] I have this compound here, CN(C)C(=Nc1nc(=[N+](C)C)ss1)N(C)C , and I need its recorded TGI.
[A] > 100 µM

----------
Test system: UO-31 renal
assay comment: NCI tumour cell line growth inhibition, 48 h
Reported values of TGI for individual entries

Solved cases (6 shown):
compound=Brc1ccc2[nH]cc(-c3nc(-c4c[nH]c5ncccc45)cs3)c2c1 experimental_target="UO-31 renal" quantity_kind=TGI experimental_value="13.1 µM"
compound=CNC(=S)N/N=C(\C(=N/NC(=S)NC)c1ccccn1)c1ccccn1 experimental_target="UO-31 renal" quantity_kind=TGI experimental_value="> 69.6 µM"
compound=O=C(O)C[C@@H]1[C@@H](O)[C@@H](O)CN2C(=O)c3ccccc3[C@H]12 experimental_target="UO-31 renal" quantity_kind=TGI experimental_value="> 100 µM"
compound=C=C1C(=O)O[C@H]2[C@H]3O[C@@H](C[C@@H]12)[C@@]1(C)CC[C@H](O1)[C@H](C)CCC[C@H]3C experimental_target="UO-31 renal" quantity_kind=TGI experimental_value="2.9 µM"
compound="O=C(CCCCCC(=O)N1CC(CCl)c2ccc([N+](=O)[O-])cc21)N1CC(CCl)c2ccc([N+](=O)[O-])cc21 (centres undefined)" experimental_target="UO-31 renal" quantity_kind=TGI experimental_value="> 100 µM"
compound=Cc1ccc2c(=O)c(C(=O)Nn3c(C)csc3=S)c[nH]c2n1 experimental_target="UO-31 renal" quantity_kind=TGI experimental_value="> 100 µM"

[Q] I have this compound here, C/C(=C\c1ccccc1)C(=O)NCc1ccc(C(=O)NCCc2ccccc2)cc1 , and I need its recorded TGI.
[A] > 100 µM

[Q] I have this compound here, O=C1NC(=O)C(=Nc2cccc3c(=O)[nH][nH]c(=O)c23)C(c2nc3ccccc3s2)C1=O (centres undefined) , and I need its recorded TGI.
[A] > 100 µM

[Q] I have this compound here, CC(=O)NC1C(OCc2ccccc2)OC(CO)C(O)C1OC(C)C(=O)N[C@@H](C)C(=O)N[C@H](CCC(=O)OCCNc1c2ccccc2nc2cccc([N+](=O)[O-])c12)C(N)=O (some centres undefined) , and I need its recorded TGI.
[A] 0.0107 µM
